# TESTED SYSTEM: TAS1R2/TAS1R3 (Homo sapiens, UniProt Q7RTX0+Q8TE23)
# Construct: we performed functional expression of the full-length heterodimeric sweet taste TAS1R2/TAS1R3 receptor using HEK293-derived cells; expressed in transfected cells; host or cells: HEK293T-Gα16gust44 cells transfected with pcDNA6-TAS1R2 and pcDNA4-TAS1R3
# TEST NAME: Calcium mobilization assay, HEK293T-Gα16gust44 cells expressing TAS1R2/TAS1R3
# Format: cell-based
# DETAILS: sweet compound alone (Fig. 5a,b, GMP series)
ENDPOINT LABEL: EC50 (nM)
Value expressed in nM; do not type the unit.

Request: EC50, test system TAS1R2/TAS1R3 (Homo sapiens, UniProt Q7RTX0+Q8TE23), entry `COC(=O)[C@H](Cc1ccccc1)NC(=O)[C@H](CC(=O)O)NCCC(C)(C)C`
300

----------
# TESTED SYSTEM: TAS1R3 (Homo sapiens, UniProt Q7RTX0)
# Construct: we performed functional expression of the full-length heterodimeric sweet taste TAS1R2/TAS1R3 receptor using HEK293-derived cells
# Sequence (Q7RTX0 21-852): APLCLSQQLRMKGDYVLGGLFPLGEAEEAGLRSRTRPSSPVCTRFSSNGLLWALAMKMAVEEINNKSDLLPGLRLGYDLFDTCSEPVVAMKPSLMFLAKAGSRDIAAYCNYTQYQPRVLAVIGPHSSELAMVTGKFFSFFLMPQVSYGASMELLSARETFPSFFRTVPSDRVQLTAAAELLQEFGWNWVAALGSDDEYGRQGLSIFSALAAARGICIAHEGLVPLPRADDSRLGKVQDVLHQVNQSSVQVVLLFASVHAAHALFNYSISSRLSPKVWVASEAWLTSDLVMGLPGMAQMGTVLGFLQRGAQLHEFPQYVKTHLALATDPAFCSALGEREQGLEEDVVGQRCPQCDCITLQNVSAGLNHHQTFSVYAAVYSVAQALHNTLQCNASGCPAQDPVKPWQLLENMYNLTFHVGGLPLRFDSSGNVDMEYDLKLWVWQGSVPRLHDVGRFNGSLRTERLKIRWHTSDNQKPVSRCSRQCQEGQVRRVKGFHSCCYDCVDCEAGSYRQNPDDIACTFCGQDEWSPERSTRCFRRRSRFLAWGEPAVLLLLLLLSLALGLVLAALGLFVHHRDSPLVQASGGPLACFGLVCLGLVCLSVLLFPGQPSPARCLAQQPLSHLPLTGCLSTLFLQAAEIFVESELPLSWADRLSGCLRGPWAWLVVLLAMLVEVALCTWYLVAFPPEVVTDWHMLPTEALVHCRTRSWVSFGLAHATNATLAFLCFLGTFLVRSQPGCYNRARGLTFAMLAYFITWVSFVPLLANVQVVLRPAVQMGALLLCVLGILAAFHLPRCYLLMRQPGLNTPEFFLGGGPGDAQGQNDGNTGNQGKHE
# TEST NAME: Calcium mobilization assay, HEK293T-Gα16gust44 cells stably expressing TAS1R3 alone
# DETAILS: CaCl2 alone; TAS1R3 alone
ENDPOINT LABEL: pEC50
Just the number, please; pEC50 means minus log10 of the concentration in mol/L.

Returns the measured pEC50 for the input compound. Input: `[Ca+2].[Cl-].[Cl-]`
1.33

----------
# TESTED SYSTEM: TAS1R3-VFT (Homo sapiens)
# Construct: pET28-TAS1R3-VFT encodes an N-terminal His6-tag followed by TAS1R3-VFT (Ala21-Ser497) and the Strep-tag II; made in house
# TEST NAME: Ligand binding by intrinsic tryptophan fluorescence, TAS1R3-VFT
# DETAILS: read-out: Kd TAS1R3-VFT
ENDPOINT LABEL: Kd (nM)
Hi! Could you send only the number? It should be in nM, unit omitted.

GET /values?readout=Kd&system=TAS1R3-VFT (Homo sapiens)&item= N[C@@H](CC(=O)O)C(=O)O [L-Asp, L-aspartate]
1180

----------
# TESTED SYSTEM: TAS1R2/TAS1R3 (Homo sapiens, UniProt Q7RTX0+Q8TE23)
# Construct: we performed functional expression of the full-length heterodimeric sweet taste TAS1R2/TAS1R3 receptor using HEK293-derived cells; expressed in transfected cells; host or cells: HEK293T-Gα16gust44 cells transfected with pcDNA6-TAS1R2 and pcDNA4-TAS1R3
# Sequence (Q8TE23 20-839): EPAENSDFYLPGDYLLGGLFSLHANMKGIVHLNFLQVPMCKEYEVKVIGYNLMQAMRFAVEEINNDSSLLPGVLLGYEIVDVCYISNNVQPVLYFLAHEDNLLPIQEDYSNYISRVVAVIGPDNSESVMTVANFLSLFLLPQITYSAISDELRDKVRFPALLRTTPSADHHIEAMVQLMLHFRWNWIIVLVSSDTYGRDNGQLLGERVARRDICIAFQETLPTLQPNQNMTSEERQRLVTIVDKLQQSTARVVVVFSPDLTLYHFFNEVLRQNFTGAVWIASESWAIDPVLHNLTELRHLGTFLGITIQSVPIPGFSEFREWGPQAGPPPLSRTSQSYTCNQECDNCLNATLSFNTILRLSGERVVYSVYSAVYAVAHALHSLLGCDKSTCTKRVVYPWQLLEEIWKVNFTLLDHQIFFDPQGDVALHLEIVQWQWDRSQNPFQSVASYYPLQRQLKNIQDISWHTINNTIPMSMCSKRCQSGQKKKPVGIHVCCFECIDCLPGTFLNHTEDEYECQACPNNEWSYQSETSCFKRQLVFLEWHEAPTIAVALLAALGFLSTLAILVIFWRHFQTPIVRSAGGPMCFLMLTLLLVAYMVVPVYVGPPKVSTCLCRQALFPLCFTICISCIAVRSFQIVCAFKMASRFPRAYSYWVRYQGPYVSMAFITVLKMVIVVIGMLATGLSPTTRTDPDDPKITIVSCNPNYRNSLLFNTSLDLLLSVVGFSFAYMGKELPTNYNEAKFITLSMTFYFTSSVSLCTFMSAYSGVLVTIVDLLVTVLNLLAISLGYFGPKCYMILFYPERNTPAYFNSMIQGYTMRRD
# Sequence (Q7RTX0 21-852): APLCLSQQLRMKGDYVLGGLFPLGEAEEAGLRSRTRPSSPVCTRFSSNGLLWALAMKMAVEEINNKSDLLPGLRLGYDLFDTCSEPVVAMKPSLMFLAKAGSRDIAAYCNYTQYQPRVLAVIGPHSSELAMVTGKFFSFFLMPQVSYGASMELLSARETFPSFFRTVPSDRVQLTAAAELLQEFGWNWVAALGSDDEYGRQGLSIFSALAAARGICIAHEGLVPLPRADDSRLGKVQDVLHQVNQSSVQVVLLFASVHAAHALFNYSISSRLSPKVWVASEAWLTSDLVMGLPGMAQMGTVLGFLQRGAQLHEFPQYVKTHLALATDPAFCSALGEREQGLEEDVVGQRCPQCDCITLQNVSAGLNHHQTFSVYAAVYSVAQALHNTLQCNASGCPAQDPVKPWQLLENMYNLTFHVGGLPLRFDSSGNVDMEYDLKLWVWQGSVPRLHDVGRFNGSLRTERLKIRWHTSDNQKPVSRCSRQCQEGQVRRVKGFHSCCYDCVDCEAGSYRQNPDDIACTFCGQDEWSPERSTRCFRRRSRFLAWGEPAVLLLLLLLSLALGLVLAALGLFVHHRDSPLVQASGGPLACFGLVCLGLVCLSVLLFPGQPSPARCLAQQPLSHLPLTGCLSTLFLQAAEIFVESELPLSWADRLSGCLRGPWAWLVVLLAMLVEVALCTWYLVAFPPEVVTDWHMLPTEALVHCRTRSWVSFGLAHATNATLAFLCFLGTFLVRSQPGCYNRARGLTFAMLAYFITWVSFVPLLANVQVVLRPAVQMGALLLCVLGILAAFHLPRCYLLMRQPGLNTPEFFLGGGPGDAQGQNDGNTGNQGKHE
# TEST NAME: Calcium mobilization assay, HEK293T-Gα16gust44 cells expressing TAS1R2/TAS1R3
# Format: cell-based
# DETAILS: CaCl2 alone; TAS1R2/TAS1R3
ENDPOINT LABEL: pEC50
Just so you know, pEC50 here is -log10 of the concentration in molar units; reply with that number alone.

Which pEC50 reading was recorded for the compound `[Ca+2].[Cl-].[Cl-]` ?
1.55
